- measurement-description: viability loss of HPDE-C7K cells – cell-based, fluorescence, HTS, primary screen (AID 431)
- protocol-conditions: HPDE-C7K KRASV12 cells, Alamar Blue viability, 48 h; at 10 µM
Hit rate of the full screen: of about 63,000 compounds, about 1,100 (1.7%) were called active.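 How the source made its calls: active means compounds whose percent cytotoxicity in the single-dose primary screen, scaled between solvent and toxic-drug controls, exceeds 50; inactive means the rest.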 The full list was thinned out, with actives kept by preference. Entries with a potency or affinity are not part of this list.
Labels: active, inactive

[
  {
    "compound": "O=C1c2cccnc2C(O)N1Cc1cccs1 (configuration not stated)",
    "class-name": "inactive"
  },
  {
    "compound": "CN1CCN(CCC(=O)N2c3ccccc3Sc3ccc(Cl)cc32)CC1",
    "class-name": "inactive"
  },
  {
    "compound": "COc1ccccc1C1c2c(oc3ccc(Cl)cc3c2=O)C(=O)N1c1cc(C)on1 (configuration not stated)",
    "class-name": "inactive"
  },
  {
    "compound": "CCOC(=O)Nc1ccc2c(c1)N(C(=O)CN1CCN(C)CC1)c1ccccc1S2",
    "class-name": "inactive"
  },
  {
    "compound": "CC1CCCCC1NC(=O)CN1CCN(Cc2ccccc2Cl)C1=O (configuration not stated)",
    "class-name": "inactive"
  },
  {
    "compound": "Cn1c2c(c(=O)n(C)c1=O)CN(Cc1ccc3c(c1)OCO3)CN2",
    "class-name": "inactive"
  },
  {
    "compound": "CCOC(=O)C(Cc1ccccc1)NC(=O)CCc1c(C)nc2ncnn2c1C (configuration not stated)",
    "class-name": "inactive"
  },
  {
    "compound": "CN1CCN(c2nc(-c3ccccc3)nc3c2oc2ccccc23)CC1",
    "class-name": "inactive"
  },
  {
    "compound": "COc1ccccc1-n1c(SC)nc(O)cc1=O",
    "class-name": "inactive"
  },
  {
    "compound": "OCCN1CCN(C(=S)c2ccc(Cl)cc2)CC1",
    "class-name": "inactive"
  },
  {
    "compound": "CN1CCN(CCCN2c3ccccc3Sc3ccc(Cl)cc32)CC1",
    "class-name": "active"
  },
  {
    "compound": "O=C1CSC(c2ccco2)N1 (configuration not stated)",
    "class-name": "inactive"
  }
]
